- TARGET_SYSTEM: microsomal human COX-1 (Homo sapiens)
- Construct: from which microsomes are prepared for microsomal assays, are human osteosarcoma 143 cells; endogenous in cells
- Sequence (P23219 24-599): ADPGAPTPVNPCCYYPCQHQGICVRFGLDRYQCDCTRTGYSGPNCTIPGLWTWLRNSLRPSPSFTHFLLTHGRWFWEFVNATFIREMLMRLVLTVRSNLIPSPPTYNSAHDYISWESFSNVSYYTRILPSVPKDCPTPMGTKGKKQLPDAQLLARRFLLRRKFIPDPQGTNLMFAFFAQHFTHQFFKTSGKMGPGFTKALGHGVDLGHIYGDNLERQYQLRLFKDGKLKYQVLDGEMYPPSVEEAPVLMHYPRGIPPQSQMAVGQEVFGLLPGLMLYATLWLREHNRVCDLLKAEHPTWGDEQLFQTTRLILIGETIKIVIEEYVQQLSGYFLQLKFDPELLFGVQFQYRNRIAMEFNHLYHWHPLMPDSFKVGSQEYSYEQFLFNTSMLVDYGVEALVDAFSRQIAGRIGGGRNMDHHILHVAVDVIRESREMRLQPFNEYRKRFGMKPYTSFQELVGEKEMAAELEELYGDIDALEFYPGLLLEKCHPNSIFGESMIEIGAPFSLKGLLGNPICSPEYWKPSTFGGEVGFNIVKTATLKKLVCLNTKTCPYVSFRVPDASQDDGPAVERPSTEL
- EXPERIMENTAL_PROTOCOL: Microsomal cyclooxygenase assay, COX-1
- CONDITION_INFO: microsomal fraction, PGE2 by EIA; read-out: IC50 against microsomal human COX-1
PARAMETER_MEASURED: IC50

QUERY_SMILES | REPORTED_VALUE
CCOC(=O)/C(=C(\COC(=O)OCCCCCCO[N+](=O)[O-])c1ccc(S(C)(=O)=O)cc1)c1ccccc1 | > 100 µM
